test details: Pharmacokinetics in fasted SD rats (PO and IV)
Assay type: in vivo
measurement parameters: rat, plasma, PO 5 mg/kg, read-out: PO parameters F (%)
assay endpoint: bioavailability (%)
Please give a number only; it is taken to be in %.

Below are worked cases with known answers.
{"compound": "C[C@@]1(c2ccc(Cl)cc2F)Oc2cccc(C3=CC[C@@H](Cc4nc5ccc(C(=O)O)cc5n4C[C@@H]4CCO4)OC3)c2O1 (single isomer, unassigned)", "unit abbreviation": "%", "measurement": 36.3}
{"compound": "C[C@]1(c2ccc(Cl)cc2F)Oc2cccc(-c3ccc(Cc4nc5ccc(C(=O)O)cc5n4C[C@@H]4CCO4)cc3)c2O1 (single isomer, unassigned)", "unit abbreviation": "%", "measurement": 26.1}

Pending compound:
What value of bioavailability has been recorded for this entry: O=C(O)c1ccc2nc(C[C@H]3CC[C@H](c4cccc(OCc5ccc(Cl)cc5F)n4)CO3)n(Cc3cncs3)c2c1 (single isomer, unassigned)
21.7

----------
test details: Pharmacokinetics in fasted SD rats (PO and IV)
Type: in vivo
measurement parameters: rat, plasma, PO 5 mg/kg, 0.50% MC, read-out: PO parameters AUC0-inf
assay endpoint: AUC(0-inf) (ng·h/mL)
Write the number in ng·h/mL without appending the unit.

{"compound": "C[C@@]1(c2ccc(Cl)cc2F)Oc2cccc(C3=CC[C@@H](Cc4nc5ccc(C(=O)O)cc5n4C[C@@H]4CCO4)OC3)c2O1 (single isomer, unassigned)", "unit abbreviation": "ng·h/mL", "AUC(0-inf)": 3190}

Param item = O=C(O)c1ccc2nc(C[C@H]3CC[C@H](c4cccc(OCc5ccc(Cl)cc5F)n4)CO3)n(Cc3cncs3)c2c1 (single isomer, unassigned) ; retrieve measured AUC(0-inf).
526

Consider the compound C[C@]1(c2ccc(Cl)cc2F)Oc2cccc(-c3ccc(Cc4nc5ccc(C(=O)O)cc5n4C[C@@H]4CCO4)cc3)c2O1 (single isomer, unassigned) and give its measured AUC(0-inf).
4410

----------
Form field: pEC50 (one value per entry).
assayed target: human GLP-1 (Homo sapiens)
test details: h-GLP-1 activity assay (Cisbio cAMP Gs dynamic kit, HTRF)
measurement parameters: HEK293 cells with stable expression of human GLP-1, relative EC50, 10 nM human GLP-1 = 100% response
pEC50: −log10 of the molar value.

Example entries begin here.
{"compound": "CN1C(=O)C(c2ccc(Cl)cc2F)Oc2c(C3CCN(Cc4nc5ccc(C(=O)O)cc5n4C[C@@H]4CCO4)CC3)cccc21 (mixture of isomers)", "measurement": "< 7.00"}
{"compound": "C[C@]1(c2ccc(Cl)cn2)Oc2cccc(C3=CC[C@@H](Cc4nc5c(F)cc(C(=O)O)cc5n4C[C@@H]4CCO4)OC3)c2O1 (single isomer, unassigned)", "measurement": "7.00 to 7.70"}

Could you now consider this next compound?
Consider the compound CC1(c2ccc(Cl)cc2F)Oc2cccc(-c3ccc(Cc4nc5ccc(C(=O)O)cc5n4C[C@@H]4CCO4)cc3)c2O1 (mixture of isomers) and give its measured pEC50.
> 7.70

----------
EC50 values for the compounds below.
assayed target: human GLP-1 (Homo sapiens, UniProt P43220)
Sequence (P43220 24-463): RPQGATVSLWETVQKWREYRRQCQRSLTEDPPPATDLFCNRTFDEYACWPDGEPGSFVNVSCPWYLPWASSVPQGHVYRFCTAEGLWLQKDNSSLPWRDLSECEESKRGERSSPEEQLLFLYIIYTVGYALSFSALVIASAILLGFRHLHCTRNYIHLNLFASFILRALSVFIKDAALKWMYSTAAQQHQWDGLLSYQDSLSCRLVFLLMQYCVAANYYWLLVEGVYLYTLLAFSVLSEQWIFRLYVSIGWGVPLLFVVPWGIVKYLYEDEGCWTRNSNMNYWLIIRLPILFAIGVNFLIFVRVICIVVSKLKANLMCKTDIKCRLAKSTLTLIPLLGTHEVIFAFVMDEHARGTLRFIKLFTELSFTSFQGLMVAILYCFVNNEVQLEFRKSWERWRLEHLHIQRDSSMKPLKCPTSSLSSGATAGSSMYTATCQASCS
test details: h-GLP-1 activity assay (Cisbio cAMP Gs dynamic kit, HTRF)
measurement parameters: HEK293 cells with stable expression of human GLP-1, relative EC50, 10 nM human GLP-1 = 100% response
Protocol: Human GLP-1 agonizing activity was detected in HEK293 cells with stable expression of human GLP-1 by Cisbio cAMP Gs dynamic kit (Catalog #62AM4PEC) according to manufacturer's protocol. Briefly, cells were collected and resuspended in assay buffer containing 0.1% BSA and 0.5 mM of IBMX at concentration to 2.5×10^5 cells/mL. […] HTRF signals were read at 665 and 615 nm with EnVision plate reader and calculated cAMP concentration by intrapolation to the standard curve. […]

Solved cases (5 shown):
{"compound": "O=C(O)c1ccc2nc(CC3CC=C(c4cccc5c4OC(c4ccc(Cl)cc4F)CO5)CO3)n(C[C@@H]3CCO3)c2c1 (mixture of isomers) [Compound 70]", "measurement": "20 to 100 nM"}
{"compound": "C[C@@]1(c2ccc(Cl)cn2)Oc2cccc(C3=CC[C@H](Cc4nc5ccc(C(=O)O)cc5n4C[C@@H]4CCO4)OC3)c2O1 (single isomer, unassigned) [Compound 78]", "measurement": "< 20 nM"}
{"compound": "CC1(c2ccc(Cl)cn2)COc2cccc(C3CCN(Cc4nc5ccc(C(=O)O)cc5n4C[C@@H]4CCO4)CC3)c2OC1 (mixture of isomers) [Compound 86]", "measurement": "> 100 nM"}
{"compound": "O=C(O)c1ccc2nc(CN3CC=C(c4cccc5c4OC(c4ccc(Cl)cc4F)C(=O)N5)CC3)n(C[C@@H]3CCO3)c2c1 (mixture of isomers) [Compound 81]", "measurement": "> 100 nM"}
{"compound": "C[C@@]1(c2ccc(Cl)cc2F)Oc2cccc(C3CCN(Cc4nc5ccc(-c6noc(=O)[nH]6)cc5n4C[C@@H]4CCO4)CC3)c2O1 (single isomer, unassigned) [Compound 37]", "measurement": "< 20 nM"}

Let us examine a further case.
Query: EC50; subject: C[C@@]1(c2ccc(Cl)cc2F)Oc2cccc(C3CCN(Cc4nc5ccc(C(=O)NS(=O)(=O)C6CC6)cc5n4C[C@@H]4CCO4)CC3)c2O1 (single isomer, unassigned) [Compound 24]
< 20 nM
